target: T1, human LILRB1 expressed on cells (human, UniProt Q8NHL6 24-650); test: flow cytometry on CHO-LILRB1 cells, non-linear fit of the curves of FIG. 26A
T1 construct: In 293T cells it was expressed from pCMV3-LILRB1-GFP; also called CHO-LILRB1; Jurkat-LILRB1
T1 sequence (Q8NHL6 other isoform, or with tags, fused parts or gaps limits assumed): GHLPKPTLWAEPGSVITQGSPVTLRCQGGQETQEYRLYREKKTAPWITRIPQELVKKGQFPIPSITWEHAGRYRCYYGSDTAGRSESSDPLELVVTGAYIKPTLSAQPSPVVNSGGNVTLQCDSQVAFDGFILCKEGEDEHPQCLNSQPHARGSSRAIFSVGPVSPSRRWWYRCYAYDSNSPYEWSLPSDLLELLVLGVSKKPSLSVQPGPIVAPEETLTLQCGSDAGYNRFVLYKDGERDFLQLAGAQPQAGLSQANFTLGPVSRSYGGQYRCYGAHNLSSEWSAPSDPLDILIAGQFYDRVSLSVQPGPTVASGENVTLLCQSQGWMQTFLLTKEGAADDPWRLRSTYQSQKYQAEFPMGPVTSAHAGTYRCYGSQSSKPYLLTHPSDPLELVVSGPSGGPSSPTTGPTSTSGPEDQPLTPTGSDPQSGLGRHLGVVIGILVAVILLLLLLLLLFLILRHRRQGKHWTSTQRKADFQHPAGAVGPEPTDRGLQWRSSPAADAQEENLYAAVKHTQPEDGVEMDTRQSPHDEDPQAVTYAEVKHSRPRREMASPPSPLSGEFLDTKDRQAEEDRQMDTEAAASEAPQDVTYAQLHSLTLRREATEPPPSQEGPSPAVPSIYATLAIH
As shown below, each of these binders has a reported MaxMFI value.
Respond with the number and no other words.

Some solved cases for reference:
Binder: D2M002-103HV1 (antibody, V domains shown, Humanized and optimized variant of the D2M002-002 lineage) VH: QVQLVQSGAEVKKPGASVKVSCKASGYTFTRYVMHWVRQAPGQRLEWIGYINPNNEETKYSQKFKGRVTLTRDTSASTAYMELSSLRSEDTAVYYCARADLEILPYYDHARYAMDYWGQGTLVTVSS VL: DIQMTQSPSSVSASVGDRVTITCRASENIYSHLAWYQQKPGKAPKLLVYNAKSLQSGVPSRFSGSGSGTDFTLTISSLQPEDFATYYCQHFWSTPPTFGGGTKVEIK
Measured number: 111000

Binder: D2M002-002 (antibody, V domains shown, Hit from immunised mice; also called clone #2; anti-LILRB1/2 clone #2) VH: EVQLQQSGPELVKPGASVKMSCKASGYTFTRYVMHWVKQKPGQGLEWIGYINPNNDGTKYNEKFKGKVTLTSDKSSSTAYMELSSLTSEDSAVYYCARGDLEILPYYDHARNAMDYWGQGTSVTVSS VL: DVQMIQSPASLSASVGETVTITCRASENIYSYLAWYQQKQGKSPQLLVYNAKTLAEGVPSRFSGSGSGTQFSLKINSLQPEDFGSYYCQHFWSTPPTFGGGTKLEIK
Measured number: 110000

Binder: D2M002-126 (antibody, V domains shown, Humanized and optimized variant of D2M002-026) VH: QVQLVQSGAEVKKPGASVKVSCKASGYTFTSYWIEWVRQAPGQGLEWIGEILPGDESTNYNAKFKGRVTFTTDTSTSTAYMELRSLRSDDTAVYYCARSGAGGYDSGAFAYWGQGTLVTVSS VL: AIQLTQSPSSLSASVGDRVTITCRASESVDTYGNSFMHWYQQKPGKAPKLLVYRTSNLESGVPSRFSGSGSGTDFTLTISSLQPEDFATYYCQQSNEDPWTFGGGTKVEIK
Measured number: 113000

Consider the record given below.
Short answer for D2M002-026 (antibody, V domains shown, Hit; also called clone #26) VH: QVQLQQPGAELMKPGASVKISCKATGYTFSSYWIEWVKQRPGHGLEWIGEILPGDGSTNYNAKFKGQATFTADTSSNTAYMQFSSLTSEDSAVYYCARSGAGGYDSGAFAYWGQGTLVTVSS VL: DIVLTQSPASLAVSLGQRATISCRASESVDTYGNSFMHWYQQKPGQPPKLLVYRTSNLESGIPARFSGSGSGTDFTLTINPVEADDVATYYCQQSNEDPWTFGGGTKLEIK : MaxMFI was 113000
